- Test system: CYP1A1
- procedure.summary: Potentiation factor, ratio of IC50 for wild type HEK293 cells to IC50 of HEK293 cells expressing CYP1A1
- Assay type: ADME, cell-based
- settings: human, wild type HEK293 cells and HEK293 cells expressing CYP1A1; read-out: Ratio IC50
result.type: selectivity ratio
Keep the answer to the number alone.

**Q:** Which selectivity ratio is listed for COc1ccc2[nH]c(C(=O)N3CC(CCl)c4c3ccc3[nH]ccc43)cc2c1 (stereo unspecified) ?
**A:** 14.7

**Q:** Repeat with O=C(c1cc2cc(F)c(F)cc2[nH]1)N1CC(CCl)c2c1ccc1[nH]ccc21 (stereo unspecified)
**A:** 2.6

**Q:** And O=C(c1cc2cc(F)cc(F)c2[nH]1)N1CC(CCl)c2c1ccc1[nH]ccc21 (stereo unspecified) ?
**A:** 1.1

**Q:** Record: O=C(c1cc2cc(Cl)ccc2[nH]1)N1CC(CCl)c2c1ccc1[nH]ccc21 (stereo unspecified)
**A:** 41.7

**Q:** Also check COc1cc2cc(C(=O)N3CC(CCl)c4c3ccc3[nH]ccc43)[nH]c2cc1OC (stereo unspecified)
**A:** 1.3

**Q:** Follow-up item: CS(=O)(=O)c1cc(F)cc2cc(C(=O)N3CC(CCl)c4c3ccc3[nH]ccc43)[nH]c12 (stereo unspecified)
**A:** 0.9

**Q:** Also COc1ccc2[nH]c(C(=O)N3CC(CCl)c4c3cc(O)c3[nH]ccc43)cc2c1 (stereo unspecified) ?
**A:** 1.2

**Q:** Same again, this time with O=C(c1cc2cc(O)ccc2[nH]1)N1CC(CCl)c2c1ccc1[nH]ccc21 (stereo unspecified)
**A:** 0.8

**Q:** Entry to check: COc1cc2cc(C(=O)N3CC(CCl)c4c3ccc3[nH]ccc43)[nH]c2c(OC)c1OC (stereo unspecified)
**A:** 1.1

**Q:** Subsequent entry: O=C(c1cc2cc(F)ccc2[nH]1)N1CC(CCl)c2c1ccc1[nH]ccc21 (stereo unspecified)
**A:** 21

**Q:** Proceed to COc1ccc2[nH]c(C(=O)N3CC(CCl)c4c3cc(O)c3ccccc43)cc2c1 (stereo unspecified)
**A:** 0.2

----------
- procedure.summary: Antiproliferative activity against human EJ138 cells treated with extract obtained from 1 hr incubation of compound with CYP1A2 bactosome measured after 96 hrs by MTT assay
- Format: functional, cell-based
result.type: pIC50
When answering, recall that pIC50 equals minus log10 of the concentration in mol/L, and write that number alone.

**Q:** Fill blank: measured pIC50 of the molecule COc1ccc2[nH]c(C(=O)N3CC(CCl)c4c3ccc3ccccc43)cc2c1 (stereo unspecified) is ____.
**A:** 5.65

----------
- Test system: CYP1A1
- procedure.summary: Potentiation factor, ratio of IC50 for wild type CHO cells to IC50 of CHO cells expressing CYP1A1
- Type: ADME, cell-based, Cricetulus griseus
- settings: chinese hamster, wild type CHO cells and CHO cells expressing CYP1A1; read-out: Ratio IC50
Exercise: state measured selectivity ratio for each of the molecules provided.

**Q:** Name the recorded selectivity ratio for O=C(c1cc2cc(Cl)ccc2[nH]1)N1CC(CCl)c2c1ccc1[nH]ccc21 (stereo unspecified) .
**A:** > 23200

**Q:** Same read-out for COc1cc2cc(C(=O)N3CC(CCl)c4c3ccc3[nH]ccc43)[nH]c2c(OC)c1OC (stereo unspecified) ?
**A:** 2.4

**Q:** Now consider O=C(c1cc2cc(F)ccc2[nH]1)N1CC(CCl)c2c1ccc1[nH]ccc21 (stereo unspecified) .
**A:** 251

**Q:** # iterate: COc1ccc2[nH]c(C(=O)N3CC(CCl)c4c3cc(O)c3ccccc43)cc2c1 (stereo unspecified)
**A:** 1.9

**Q:** # iterate: COc1cc2cc(C(=O)N3CC(CCl)c4c3ccc3[nH]ccc43)[nH]c2cc1OC (stereo unspecified)
**A:** > 3000

**Q:** Let us now turn to CS(=O)(=O)c1cc(F)cc2cc(C(=O)N3CC(CCl)c4c3ccc3[nH]ccc43)[nH]c12 (stereo unspecified)
**A:** 0.8

**Q:** What do we get for O=C(c1cc2cc(F)cc(F)c2[nH]1)N1CC(CCl)c2c1ccc1[nH]ccc21 (stereo unspecified) ?
**A:** < 21

**Q:** Same again, this time with O=C(c1cc2cc(O)ccc2[nH]1)N1CC(CCl)c2c1ccc1[nH]ccc21 (stereo unspecified)
**A:** 11

**Q:** // next record COc1ccc2[nH]c(C(=O)N3CC(CCl)c4c3ccc3[nH]ccc43)cc2c1 (stereo unspecified)
**A:** > 3200

**Q:** # repeat for O=C(c1cc2cc(F)c(F)cc2[nH]1)N1CC(CCl)c2c1ccc1[nH]ccc21 (stereo unspecified)
**A:** 80

**Q:** And the next one, COc1ccc2[nH]c(C(=O)N3CC(CCl)c4c3cc(O)c3[nH]ccc43)cc2c1 (stereo unspecified) ?
**A:** 0.2
